The reader will find reported GI50 values listed item by item below.
- Test system: SF-268
- ASSAY OVERVIEW: NCI tumour cell line growth inhibition, 48 h
Active and inactive are the calls of the source. Rule as the data show it: active = GI50 up to about 1.1 µM and inactive = higher. Peptide text beside a SMILES is read from it. * marks the point of attachment. Cbz = O=C(OCc1ccccc1)*

COMPOUND	GI50
Cc1nnc(CC#N)n1NC(=O)CC#N	> 100 µM (inactive)
CCOC(=O)C(C)NC(=O)C(C)NC(=O)C(C)NC(=O)C(C)NC(=O)C(C)NC(=O)C(C)NC(=O)C(C)NC(=O)OCc1ccccc1 (centres undefined) (Cbz-AAAAAAA-OEt; configuration not given here)	> 100 µM (inactive)
COc1ccc2c(c1)c1c(n2CCN2CCCCC2)-c2cccc(OC)c2CC1	19.7 µM (inactive)
C=C(CC(NC(=O)c1ccc(C(CC)Cc2cnc3nc(N)nc(N)c3n2)cc1)C(=O)O)C(=O)O (centres undefined)	0.0731 µM (active)
COC1(OC)CCN(Cc2ccccc2)C1=O	> 38.1 µM (inactive)
Nc1nc(CC2(O)CCCCC2)cc(-c2ccccc2)n1	> 64.4 µM (inactive)
COC(=O)C1(C)CCc2c(OC)ccc(OC)c2C1=O (centres undefined)	> 100 µM (inactive)
COc1ccc(C[C@H](N)C(=O)N2C[C@@H](CO)C[C@@H](n3cnc4c(N(C)C)ncnc43)C2)cc1	> 100 µM (inactive)
O=C1CS(=O)(=O)C(c2cccc(Oc3ccccc3)c2)N1C1CC1 (centres undefined)	64.7 µM (inactive)

Entry source: ChEMBL document CHEMBL1201862
